Biological target: 11β-HSD1 (Homo sapiens, UniProt P28845)
Sequence (P28845 whole entry): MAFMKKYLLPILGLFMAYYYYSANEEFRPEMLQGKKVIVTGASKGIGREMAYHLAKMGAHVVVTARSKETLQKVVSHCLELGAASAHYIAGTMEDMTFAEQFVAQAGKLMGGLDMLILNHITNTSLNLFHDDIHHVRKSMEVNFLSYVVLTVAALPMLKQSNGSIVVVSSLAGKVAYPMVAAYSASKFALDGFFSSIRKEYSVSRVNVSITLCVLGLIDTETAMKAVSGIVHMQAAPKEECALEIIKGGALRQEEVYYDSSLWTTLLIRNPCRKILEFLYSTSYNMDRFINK
Assay: biochemical
Settings: read-out: Average % inhibition at 100 nM, Biological Test Example 1; 100 nM
Listed next: entries and their corresponding inhibition at 0.1 µM.
Show the value, then the unit it is measured in.

molecule: O=C1OC(CCCO)(c2ccc(F)cc2)CCN1Cc1c(Cl)cccc1Cl (centres unmarked) [EXAMPLE 347]
testTarget: 11β-HSD1 (Homo sapiens, UniProt P28845)
inhibition at 0.1 µM: 96%
//
molecule: C[C@@H](c1ccc(Cl)cc1F)N1CC[C@](CCCNS(C)(=O)=O)(c2ccc(F)cc2)OC1=O [EXAMPLE 602]
testTarget: 11β-HSD1 (Homo sapiens, UniProt P28845)
inhibition at 0.1 µM: 98.6%
//
molecule: C[C@@H](c1ccc(OCC(F)(F)F)cc1)N1CC[C@](CCC(N)=O)(c2ccc(F)cc2)OC1=O [EXAMPLE 505]
testTarget: 11β-HSD1 (Homo sapiens, UniProt P28845)
inhibition at 0.1 µM: 96.3%
//
molecule: C[C@@H](c1ccc(-c2ccc(F)cc2)cc1)N1CC[C@](CCCOP(=O)(O)O)(c2ccccc2)OC1=O [EXAMPLE 310]
testTarget: 11β-HSD1 (Homo sapiens, UniProt P28845)
inhibition at 0.1 µM: 77.5%
//
molecule: C[C@@H](c1cccc(Br)c1)N1CC[C@](CCC(N)=O)(c2ccc(F)cc2)OC1=O [EXAMPLE 358]
testTarget: 11β-HSD1 (Homo sapiens, UniProt P28845)
inhibition at 0.1 µM: 84%

Given the entry COc1ccc([C@H](C)N2CC[C@](CC(C)(C)O)(c3ccccc3)OC2=O)cc1 [EXAMPLE 427] , what inhibition at 0.1 µM was observed with 11β-HSD1 (Homo sapiens, UniProt P28845)? 97.8%

Given the entry C[C@@H](c1ccc(Br)cc1)N1CC[C@](CCC(C)(C)O)(c2ccc(F)cc2)OC1=O [EXAMPLE 373] , what inhibition at 0.1 µM was observed with 11β-HSD1 (Homo sapiens, UniProt P28845)? 89.1%

Given the entry O=C1OC(CCCO)(c2ccc(F)cc2)CCN1Cc1cc(Cl)ccc1Cl (centres unmarked) [EXAMPLE 345] , what inhibition at 0.1 µM was observed with 11β-HSD1 (Homo sapiens, UniProt P28845)? 74.7%

====

Molecular target: 11β-HSD1 (Homo sapiens)
Assay: biochemical
Settings: read-out: Average % inhibition at 100 nM, Biological Test Example 1; 100 nM compound
Listed next: entries and their corresponding inhibition at 0.1 µM.
Field: numeric (%). Do not append units.

Worked examples, 6 compounds total:
compound: C[C@@H](c1cccc(C(F)(F)F)c1)N1CC[C@](CCCO)(c2ccc(F)cc2)OC1=O
inhibition at 0.1 µM / %: 94
--
compound: CCC[C@]1(c2ccccc2)CCN([C@@H](C)c2ccc(-c3ccc(F)cc3F)cc2)C(=O)O1
inhibition at 0.1 µM / %: 90.7
--
compound: CC(O)C[C@]1(c2ccccc2)CCN([C@@H](C)c2ccc(-c3ccc(F)cc3)cc2)C(=O)O1 (single isomer, unassigned) [EXAMPLE 224 Isomer 1]
inhibition at 0.1 µM / %: 100
--
compound: C=CCC1(c2ccc(F)cc2)CCN([C@@H](C)c2ccc(Br)cn2)C(=O)O1 (single isomer, unassigned) [EXAMPLE 128 Isomer 1]
inhibition at 0.1 µM / %: 26.1
--
compound: CC[C@@H](c1ccc(-c2ccc(F)cc2)cc1)N1CC[C@](CCCO)(c2ccc(F)cc2)OC1=O
inhibition at 0.1 µM / %: 99
--
compound: C[C@@H](c1ccc(Br)cc1)N1CC[C@](CC(O)CO)(c2ccc(F)cc2)OC1=O (single isomer, unassigned) [EXAMPLE 144 Isomer 2]
inhibition at 0.1 µM / %: 95.3

Now, please, on to the next compound.
For the compound C=CCC1(c2ccc(F)cc2)CCN(C(C)c2ccc(-c3ccc(F)cc3F)cn2)C(=O)O1 (stereo not shown) , what inhibition at 0.1 µM is on record? 6.6
